Target: T1, recombinant human ErbB3 monomeric protein (cleaved rhErbB3) (human, UniProt P21860 20-643, limits assumed)
T1 construct: Monomer made by protease cleavage of the Fc fusion; also called Monomeric ErbB3
Assay: SPR Biacore 37 C; supernatant antibody captured on anti-human Fc, cleaved rhErbB3 injected
MEASUREMENT LABEL: koff (s⁻¹)
State the answer as a number, implicitly in s⁻¹.

Some binders with known koff results, for comparison:
Challenge: Field request: koff | item: Sh24C05-31 (antibody, human IgG1, kappa, V domains shown, Humanized, human IgG1/kappa) VH: QVQLVESGGGLVKPGGSLRLSCAASGFTFSDYAMSWIRQAPGKGLEWVSTISDGGTYTYYPDNVKGRFTISRDNAKNSLYLQMNSLRAEDTAVYYCAREWGDYDGFDYWGQGTLVTVSS VL: DIQMTQSPSSLSASVGDRVTITCRASQEISGYLSWYQQKPGKAPKRLIYAASTLDSGVPSRFSGSGSGTEFTLTISSLQPEDFATYYCLQYDSYPYTFGQGTKLEIKR
Response given: 0.000292

Challenge: Requested field: koff. Item: Sh24C05-43 (antibody, human IgG1, kappa, V domains shown, Humanized, human IgG1/kappa) VH: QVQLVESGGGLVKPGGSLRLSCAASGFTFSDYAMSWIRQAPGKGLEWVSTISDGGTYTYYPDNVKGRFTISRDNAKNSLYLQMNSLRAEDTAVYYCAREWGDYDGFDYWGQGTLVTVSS VL: DIQLTQSPSFLSASVGDRVTITCRASQEISGYLSWYQQKPGKAPKLLIYAASTLDSGVPSRFSGSGSGTEFTLTISSLQPEDFATYYCLQYDSYPYTFGQGTKLEIKR
Response given: 0.00358

Shift focus to the following entry.
Challenge: Consider the binder shown here: Sh24C05-21 (antibody, human IgG1, kappa, V domains shown, Humanized, human IgG1/kappa) VH: EVQLVESGGGLVKPGGSLRLSCAASGFTFSDYAMSWVRQAPGKGLEWVSTISDGGTYTYYPDNVKGRFTISRDNAKNSLYLQMNSLRAEDTAVYYCAREWGDYDGFDYWGQGTLVTVSS VL: DIQMTQSPSSLSASVGDRVTITCRASQEISGYLSWFQQKPGKAPKSLIYAASTLDSGVPSRFSGSGSGTDFTLTISSLQPEDFATYYCLQYDSYPYTFGQGTKLEIKR What is its recorded koff?
Response given: 0.000662
